- assayTarget: recombinant human MMP-13 (Homo sapiens)
- protocolDescription: In vitro metalloprotease inhibition, fluorogenic peptide substrate
- conditionDetails: APMA-activated enzyme, room temperature, pH 7.5, substrate 4 μM
Where a name gives a salt, the structure may show the parent alone.
Measured IC50 of individual entries
measureName: IC50

INSERT INTO results (compound, assaytarget, observed) VALUES
  ('Cl.O=C(Nc1ccc(S(=O)(=O)CC2(C(=O)NO)CCNCC2)cc1)c1ccccc1 [Example 1, monohydrochloride]', 'recombinant human MMP-13 (Homo sapiens)', '243 nM'),
  ('COc1cccc(CN2CCC(CS(=O)(=O)c3ccc(Oc4ccccc4)cc3)(C(=O)NO)CC2)c1 [Example 3, Monohydrochloride]', 'recombinant human MMP-13 (Homo sapiens)', '0.4 nM'),
  ('Cl.O=C(NO)C1(CS(=O)(=O)c2ccc(Oc3ccccc3)cc2)CCNCC1 [Example 6, Monohydrochloride]', 'recombinant human MMP-13 (Homo sapiens)', '8 nM');

Data origin: patent US6638952B1
